tested on: Pseudomonas aeruginosa; assay: Antibacterial activity against efflux pump knock-down Pseudomonas aeruginosa PAO280 by twofold broth microdilution technique; type: functional
REPORTED_PROPERTY: MIC (µg/mL)

Below, 4 compounds whose answers are already recorded.
INSERT INTO assay_data (compound, quantitative_readout) VALUES
  ('CC(CO)(OCc1ccc(-c2ccccc2)cc1)C(=O)NO (racemic)', 4),
  ('C[C@@](OCc1ccc(-c2ccccc2)cc1)(C(=O)NO)[C@@H](O)c1ccno1', 0.125),
  ('CC(CO)(NC(=O)c1ccc(-c2ccccc2)cc1)C(=O)NO (racemic)', 32),
  ('C[C@H](O)[C@](C)(OCc1ccc(-c2ccccc2)cc1)C(=O)NO', 0.5);

1. Cn1ccnc1[C@H](O)[C@](C)(OCc1ccc(-c2ccccc2)cc1)C(=O)NO
2. CC(C)[C@H](O)[C@](C)(OCc1ccc(-c2ccccc2)cc1)C(=O)NO
Prompt: Quick check, higher MIC between 1 and 2 ? Which one? Tell me its label.
Response: 2

1. C[C@@](OCc1ccc(-c2ccccc2)cc1)(C(=O)NO)[C@@H](O)c1c[nH]cn1
2. C[C@@](OCc1ccc(-c2ccccc2)cc1)(C(=O)NO)[C@@H](O)c1ccccc1
3. C[C@@](OCc1ccc(-c2ccccc2)cc1)(C(=O)NO)[C@@H](O)c1ccn[nH]1
Prompt: Rank order required: MIC, descending. A ranking is expressed here by listing the labels in the requested order.
Response: 2, 3, 1
(2: 8 µg/mL, 3: 0.25 µg/mL, 1: 0.125 µg/mL)
